assay.method.text: Solubility of tripamide in water, Liquid I or Liquid II of the Japanese Pharmacopeia (37° C., 5 days, absorbancy method)
Format: physicochemical
cond: jp liquid ii, pH 7.5; Liquid II of the Japanese Pharmacopeia, pH about 7.5; 37° C., 5 days; as tripamide; Experiment 2; read-out: Solubility (mg/ml), Japanese Pharmacopeia Liquid II
Protocol: The inclusion compound prepared in accordance with the process described in Example 1 was used as a sample. This sample was prepared by the reaction of 1 mole of tripamide and 3 moles of β-cyclodextrin. For purpose of comparison, tripamide per se was used. The sample was accurately weighed 100 mg as tripamide and mixed with water, Liquid I of the Japanese Pharmacopeia or Liquid II of the Japanese Pharmacopeia. […] Tripamide, dissolved in the solution, was measured by the absorbancy method. […]
measurement.label: solubility at 120 h (mg/mL)
Lab book: enter the figure in mg/mL, no units written.

// lookup solubility at 120 h for NS(=O)(=O)c1cc(C(=O)NN2C[C@@H]3[C@@H]4CC[C@@H](C4)[C@@H]3C2)ccc1Cl [Tripamide] 0.0144
